Hey, just so you know, these numbers are from the supplement of paper PMC10567573.

Would you mind telling me the reported protein stability index of each entry?
B1: OR10K2 (parent)
chain: SLARLQQLLFVIFLLLYLFTLGTN

variants of: B1; assay: protein stability index of a GFP-peptide fusion (GPS, HEK-293T) (PSI 1-6); higher = more stable; settings: c terminus: a fixed tail appended;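 further: lentivirally expressed fusions sorted by FACS into six bins by GFP to DsRed ratio, PSI derived from sequencing read proportions per bin multiplied by bin number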
Simply state the number, no unit and no words.

IN: Requested field: protein stability index. Item: L21F
OUT: 3.52

IN: Find the recorded protein stability index belonging to L21V and report it.
OUT: 2.08

IN: Give the measured protein stability index of A3F .
OUT: 1.86

IN: What value of protein stability index has been reported for the following variant? T23C
OUT: 4.22

IN: Please report the recorded protein stability index for Y17F .
OUT: 1.68

IN: Please give the measured protein stability index for this variant: S1Y
OUT: 3.24

IN: Requested read-out: protein stability index. Entry: L5I
OUT: 1.78

IN: Record request: protein stability index value, item L8C
OUT: 3.24

IN: # protein stability index lookup, item R4F
OUT: 2.36

IN: Look up protein stability index: L2M
OUT: 2.45

IN: Look up protein stability index: L5S
OUT: 3.05

IN: What does the data say about its protein stability index? Entry: T23R
OUT: 1.53

IN: Requested read-out: protein stability index. Entry: Q6E
OUT: 3.01

IN: I have this variant here, L14I , and I need its recorded protein stability index.
OUT: 2.72

IN: Can you look up the measured protein stability index of S1E for me?
OUT: 2.11

IN: Data request, read-out protein stability index, for L8S
OUT: 2.86

IN: Which protein stability index value is on record for Q6I ?
OUT: 2.84

IN: Quick one: protein stability index of F10N ?
OUT: 2.18
